System: P2X purinoceptor 7 (Rattus norvegicus, UniProt Q64663) | Read-out: IC50 | Origin: multiple publications
Sequence (Q64663 whole entry): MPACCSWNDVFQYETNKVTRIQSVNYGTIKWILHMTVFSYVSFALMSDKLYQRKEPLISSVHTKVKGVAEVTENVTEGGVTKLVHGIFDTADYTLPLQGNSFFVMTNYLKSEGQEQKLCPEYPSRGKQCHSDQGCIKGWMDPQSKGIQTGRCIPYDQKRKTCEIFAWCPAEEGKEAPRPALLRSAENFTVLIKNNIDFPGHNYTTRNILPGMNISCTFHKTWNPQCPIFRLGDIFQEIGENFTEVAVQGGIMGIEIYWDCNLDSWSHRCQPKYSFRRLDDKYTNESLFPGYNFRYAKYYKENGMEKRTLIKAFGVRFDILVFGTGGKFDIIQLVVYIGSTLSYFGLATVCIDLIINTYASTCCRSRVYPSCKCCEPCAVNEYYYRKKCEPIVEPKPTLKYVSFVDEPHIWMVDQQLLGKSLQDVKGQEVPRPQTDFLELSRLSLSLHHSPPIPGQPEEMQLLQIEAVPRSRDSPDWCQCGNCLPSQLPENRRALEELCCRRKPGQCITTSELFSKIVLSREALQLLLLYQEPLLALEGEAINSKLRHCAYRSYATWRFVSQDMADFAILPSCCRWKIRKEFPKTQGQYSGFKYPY
Response body: numeric value in nM, unit text excluded.

Sample answers from the record:
Cc1nn(-c2ccccc2)c(C)c1CC(=O)NCc1ccc(F)cc1Cl: 100
CC(C)N1C(=O)CC[C@H]1C(=O)NCc1ccc(F)cc1Cl: 1580
Cc1n[nH]c(C)c1CC(=O)NCc1ccc(F)cc1Cl: 158

Exam item: Endpoint output: IC50 of CN1C(=O)CC[C@H]1C(=O)NCc1cccc(C(F)(F)F)c1Cl . Value?
Marked response: 316

Exam item: Here is the next molecule: Cc1c(C(=O)N2Cc3nnn(C4=NN=CC4)c3CC2C)cccc1C(F)(F)F (stereo not given)
Marked response: 10.2
